target: Syk (Homo sapiens); assay: High Throughput Syk Biochemical Assay (KinEASE TR-FRET); settings: table 'ALL NEW COMPOUNDS IN 2014', 20 μM ATP, 1 μM biotinylated peptide, 0.015 nM Syk, 30 min at room temperature, read-out: Syk IC50
pIC50: −log10 of the molar value.
OBSERVED PROPERTY: pIC50

a = C[C@@H](Oc1nc(-c2ccc(N3CCN(S(C)(=O)=O)CC3)c(F)c2)cc2ncn(C3CC3)c12)[C@H]1CNC(=O)C1
b = C[C@@H](Oc1nc(-c2ccc(N3CCN(C4COC4)CC3)cc2)cc2ncn(CCO)c12)[C@H]1CNC(=O)C1
Request: Identify the entry with the smaller pIC50: a or b . Output the label that corresponds to your choice.
Result: b

---

biological target: UniProt:P43405; experiment: High Throughput Syk Biochemical Assay (KinEASE TR-FRET); settings: TABLE D, 20 μM ATP, 1 μM biotinylated peptide, 0.015 nM Syk, 30 min at room temperature, read-out: IC50
pIC50: −log10 of the molar value.
OBSERVED PROPERTY: pIC50

>>> test_result("C[C@@H](Oc1nc(-c2cnn(C(C)(C)C)c2)cc2ncn(C(F)F)c12)[C@H]1CNC(=O)C12CC2")
7.46
>>> test_result("CC(C)n1cc(-c2cc(O[C@H](C)[C@H]3CNC(=O)C3)c3scnc3c2)cn1 (stereo in doubt)")
9.16
>>> test_result("C[C@@H](Oc1cc(-c2cnn(C3CCC3)c2)cc2ncsc12)[C@H]1CNC(=O)C1 (stereo in doubt)")
9.16
>>> test_result("C[C@@H](Oc1cc(-c2cnn(C3CCOCC3)c2)cc2ncsc12)[C@H]1CNC(=O)C1 (stereo in doubt)")
9.16
>>> test_result("COc1cccc(-c2cc(O[C@H](C)[C@H]3CNC(=O)C3)c3c(c2)ncn3C)n1")
7.34

1 = C[C@@H](Oc1cc(-c2ccc(N3CCOCC3)cc2)cc2ncsc12)[C@H]1CNC(=O)C1 (stereo in doubt)
2 = C[C@@H](Oc1nc(C2=CCCCC2)cc2ncn(C)c12)[C@H]1CNC(=O)C1
Request: Please indicate which has the smaller reported pIC50: 1 , or 2 . Write down the label attached to your selection.
Result: 2

---

target: Syk (Homo sapiens); assay: High Throughput Syk Biochemical Assay (KinEASE TR-FRET); details: table 'ALL NEW COMPOUNDS IN 2014', 20 μM ATP, 1 μM biotinylated peptide, 0.015 nM Syk, 30 min at room temperature, read-out: Syk IC50
OBSERVED PROPERTY: IC50 (nM)

# annotated cases, reported IC50 shown
>>> test_result("C[C@@H](Oc1nc(-c2ccc(N3CC4CC(C3)N4C3COC3)cc2)cc2ncn(C3CC3)c12)[C@H]1CNC(=O)C1")
2.69
>>> test_result("C[C@@H](Oc1cc(-c2nccs2)cc2ncn(C3CC3)c12)[C@H]1CNC(=O)C1")
9.4

A = C[C@@H](Oc1cc(-c2ccc(N3CCC(N4CCOCC4)CC3)cn2)cc2ncn(C3CC3)c12)[C@H]1CNC(=O)C1
B = Cc1cc(-c2cc3ncn(C4CC4)c3c(O[C@H](C)[C@H]3CNC(=O)C3)n2)sn1
Request: Task for the reader: decide whether A or B has the larger IC50. Respond using the label that marks the chosen record.
Result: A

---

biological target: UniProtKB P43405; experiment: High Throughput Syk Biochemical Assay (KinEASE TR-FRET); settings: TABLE D, 20 μM ATP, 1 μM biotinylated peptide, 0.015 nM Syk, 30 min at room temperature, read-out: IC50
OBSERVED PROPERTY: IC50 (nM)

These solved cases illustrate the format of a correct answer.
>>> test_result("COc1ccc(-c2cc3ncn(C(F)F)c3c(O[C@H](C)[C@H]3CNC(=O)C34CC4)n2)cc1OC")
38
>>> test_result("COc1ccc(-c2cc3ncn(C(C)C)c3c(O[C@H](C)[C@H]3CNC(=O)C3)n2)cc1OC")
3.39

1 = C[C@@H](Oc1cc(-c2cnn(CC(F)F)c2)cn2nccc12)[C@H]1CNC(=O)C1
2 = C[C@H](Oc1cc(-c2cnc(C(C)(C)C)s2)cc2ncsc12)[C@@H]1CNC(=O)C1 (stereo in doubt)
3 = C[C@@H](Oc1nc(-c2cccc(N3CCOCC3)c2)cc2ncn(C)c12)[C@H]1CNC(=O)C1
4 = C[C@@H](Oc1nc(-c2ccc(N3CCOCC3)cc2)cc2ncn(C)c12)[C@H]1CNC(=O)C1
5 = CC(C)n1ccc(-c2cc(O[C@H](C)[C@H]3CNC(=O)C3)c3scnc3c2)n1 (stereo in doubt)
Request: Sort ascending by IC50. Give the labels in the order requested.
Result: 2, 5, 4, 1, 3
(2: 1.5 nM, 5: 2.52 nM, 4: 4.6 nM, 1: 10.2 nM, 3: 102 nM)

---

molecular target: UniProtKB P43405; test: High Throughput Syk Biochemical Assay (KinEASE TR-FRET); details: table 'ALL NEW COMPOUNDS IN 2014', 20 μM ATP, 1 μM biotinylated peptide, 0.015 nM Syk, 30 min at room temperature, read-out: Syk IC50
pIC50: −log10 of the molar value.
OBSERVED PROPERTY: pIC50

>>> test_result("C[C@@H](Oc1nc(-c2ccc(N3CCN(C4COC4)CC3)nc2)cc2ncn(C3CC3)c12)[C@H]1CNC(=O)C1")
8.44
>>> test_result("C[C@@H](Oc1nc(-c2ccc3c(c2)n(C)c(=O)n3C)cc2ncn(C3CC3)c12)[C@H]1CNC(=O)C1")
8.32
>>> test_result("C[C@@H](Oc1cc(-c2ccc3c(c2)NCC3(C)C)cc2ncn(C3CC3)c12)[C@H]1CNC(=O)C1")
8.04
>>> test_result("C[C@@H](Oc1nc(-c2cnn(-c3ccncc3)c2)cc2ncn(C3CC3)c12)[C@H]1CNC(=O)C1")
8.08
>>> test_result("C[C@@H](Oc1nc(-c2ccc3c(cnn3CC(F)F)c2)cc2ncn(C3CC3)c12)[C@H]1CNC(=O)C1")
8.74
>>> test_result("C[C@@H](Oc1cc(-c2ccccn2)cc2ncn(C3CC3)c12)[C@H]1CNC(=O)C1")
7.98

I = C[C@@H](Oc1nc(-c2ccc(N3CCn4cnnc4C3)cc2)cc2ncn(C3CC3)c12)[C@H]1CNC(=O)C1
II = Cc1ncc(-c2cc(O[C@H](C)[C@H]3CNC(=O)C3)c3c(c2)ncn3C2CC2)[nH]1
Request: Pick one: I or II . Which has the bigger pIC50 number? State your choice using its label.
Result: I

---

molecular target: UniProt P43405; assay: High Throughput Syk Biochemical Assay (KinEASE TR-FRET); settings: TABLE D, 20 μM ATP, 1 μM biotinylated peptide, 0.015 nM Syk, 30 min at room temperature, read-out: IC50
pIC50: −log10 of the molar value.
OBSERVED PROPERTY: pIC50

Example results:
>>> test_result("C[C@@H](Oc1cc(-c2ccc(N3CCOCC3)cn2)cc2ncsc12)[C@H]1CNC(=O)C1 (stereo in doubt)")
8.72
>>> test_result("COc1ccc(-c2cc3ncn(C)c3c(O[C@H](C)[C@H]3CNC(=O)C3)n2)cn1")
7.14
>>> test_result("COc1ccc(-c2cc(O[C@H](C)[C@H]3CNC(=O)C3)c3c(C)cnn3c2C)cc1OC")
7.27
>>> test_result("COc1ccc(-c2cc3ncn(CC(F)(F)F)c3c(O[C@H](C)[C@H]3CNC(=O)C3)n2)cc1OC")
7.29
>>> test_result("COc1ccc(-c2cn3nc(C)cc3c(O[C@H](C)[C@H]3CNC(=O)C3)n2)cc1OC")
7.50
>>> test_result("COc1ccc(-c2cc(O[C@H](C)[C@H]3CNC(=O)C3)c3scnc3c2)nc1OC (stereo in doubt)")
9.16

P = C[C@@H](Oc1nc(-c2cnn(CC(F)F)c2)cc2ncn(C(F)F)c12)[C@H]1CNC(=O)C1
Q = COc1ccc(-c2cc3ncn(C4CC4)c3c(O[C@H](C)[C@H]3CNC(=O)C3)n2)cc1OC
Request: Lab note: check whether P or Q has the lower measured pIC50. Write down the label attached to your selection.
Result: P
(P: 8.48, Q: 8.80)

1 = CCn1cnc2cc(-c3ccc(OC)c(OC)c3)nc(O[C@H](C)[C@H]3CNC(=O)C3)c21
2 = Cc1c(-c2cc3ncn(C)c3c(O[C@H](C)[C@H]3CNC(=O)C3)n2)cnn1C
3 = C[C@@H](Oc1nc(-c2cnn(CCF)c2)cc2ncn(C)c12)[C@H]1CNC(=O)C1
4 = COc1ccc(-c2cc3nc(C)n(C)c3c(O[C@H](C)[C@H]3CNC(=O)C3)n2)cc1OC
5 = COc1cc(-c2cc3ncn(C)c3c(O[C@H](C)[C@H]3CNC(=O)C3)n2)ccc1C#N
Request: Please rank these molecules by pIC50 in descending order. Response format: the labels, sorted as the prompt asks.
Result: 1, 3, 4, 2, 5
(1: 8.52, 3: 7.88, 4: 7.60, 2: 7.38, 5: 7.13)

I = C[C@@H](Oc1nc(-c2ccc3c(c2)N(C)CCO3)cc2ncn(C)c12)[C@H]1CNC(=O)C1
II = C[C@@H](Oc1nc(-c2ccc3scnc3c2)cc2ncn(C)c12)[C@H]1CNC(=O)C1
III = C[C@@H](Oc1cc(-c2cc3c(cnn3C)s2)cc2ncsc12)[C@H]1CNC(=O)C1
Request: Highest pIC50 first, then in falling order down to the smallest. The labels, placed in the requested order, form the answer.
Result: III, I, II
